Would you mind telling me the reported IC50 of each entry?
target-under-test: SHP2 (Homo sapiens (Human), UniProt Q06124)
Sequence (Q06124 whole entry): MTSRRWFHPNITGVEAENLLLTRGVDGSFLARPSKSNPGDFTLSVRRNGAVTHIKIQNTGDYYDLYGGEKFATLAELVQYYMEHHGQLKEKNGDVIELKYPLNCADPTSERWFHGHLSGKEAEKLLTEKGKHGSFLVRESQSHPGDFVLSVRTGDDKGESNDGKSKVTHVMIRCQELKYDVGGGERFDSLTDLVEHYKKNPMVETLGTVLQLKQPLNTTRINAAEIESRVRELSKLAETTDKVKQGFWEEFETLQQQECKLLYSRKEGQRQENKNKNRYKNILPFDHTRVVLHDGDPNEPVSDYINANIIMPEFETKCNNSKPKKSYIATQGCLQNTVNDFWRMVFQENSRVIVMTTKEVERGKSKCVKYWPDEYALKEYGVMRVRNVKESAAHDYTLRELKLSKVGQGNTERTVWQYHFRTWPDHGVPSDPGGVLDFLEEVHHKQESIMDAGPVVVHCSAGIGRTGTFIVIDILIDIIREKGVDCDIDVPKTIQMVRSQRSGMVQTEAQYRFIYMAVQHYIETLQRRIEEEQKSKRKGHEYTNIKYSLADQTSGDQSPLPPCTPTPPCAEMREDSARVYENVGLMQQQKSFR
experimental-protocol: SHP2 Allosteric Inhibition Assay (DiFMUP prompt fluorescence)
condition-description: 0.25 nM SHP2 activated with 0.5 μM peptide IRS1_pY1172(dPEG8)pY1222; substrate DiFMUP 100 μM

Worked cases, IC50 given:
Clc1ccccc1-c1n[nH]c2nc(N3CCC4(CCNC4)C3)cnc12 (stereo not drawn)	10 to 100 µM
CC1(CN)CCN(c2cnc3c(-c4ccccc4)n[nH]c3n2)CC1	< 10 µM
N[C@H]1CCCC12CCN(c1cnc3c(-c4ccccc4Cl)n[nH]c3n1)CC2	< 10 µM
NCC1(CO)CCN(c2cnc3c(-c4ccccc4Cl)n[nH]c3n2)CC1	< 10 µM
CC1(CN)CCN(c2cnc3c(-c4ccc(Cl)cc4)n[nH]c3n2)CC1	< 10 µM
N[C@H]1CCN(c2cnc3c(-c4ccccc4Cl)n[nH]c3n2)C[C@@H]1O	< 10 µM
N[C@@H]1CCCC12CCN(c1cnc3c(-c4ccccc4Cl)n[nH]c3n1)CC2	< 10 µM
Clc1ccccc1-c1n[nH]c2nc(N3CC4CNCC4C3)cnc12 (stereo not drawn)	< 10 µM

Next compound, IC50 to be filled in.
Challenge: // returns reported IC50 for input Clc1cccc(-c2n[nH]c3nc(N4CCCCC4)cnc23)c1Cl
Response given: > 100 µM

* * *

Would you mind telling me the reported IC50 of each entry?
target-under-test: SHP2 (Homo sapiens (Human))
experimental-protocol: SHP2 Allosteric Inhibition Assay (DiFMUP prompt fluorescence)
Type: biochemical
condition-description: 0.25 nM SHP2 activated with 0.5 μM peptide IRS1_pY1172(dPEG8)pY1222; substrate DiFMUP 100 μM
Description: SHP2 is allosterically activated through binding of bis-tyrosyl-phosphorylated peptides to its Src Homology 2 (SH2) domains. […] The catalytic activity of SHP2 was monitored using the surrogate substrate DiFMUP in a prompt fluorescence assay format. The inhibitor dose response curves were analyzed using normalized IC50 regression curve fitting with control based normalization.

Worked cases, IC50 given:
NCC1CCN(c2cnc3c(-c4cccc(Cl)c4)n[nH]c3n2)C1 (stereo not shown)	< 10 µM
NC(CO)C1CCN(c2cnc3c(-c4ccccc4Cl)n[nH]c3n2)CC1 (stereo not shown)	< 10 µM
NCC1(O)CCN(c2cnc3c(-c4cccc(Cl)c4)n[nH]c3n2)CC1	< 10 µM
CC(N)C1CCN(c2cnc3c(-c4ccccc4Cl)n[nH]c3n2)CC1 (stereo not shown)	< 10 µM
N[C@H]1CCC12CCN(c1cnc3c(-c4ccccc4Cl)n[nH]c3n1)CC2	< 10 µM

Hello, I would appreciate it if you could give IC50 for each entry below.
1. NCC1(N)CCN(c2cnc3c(-c4ccccc4Cl)n[nH]c3n2)CC1
2. N[C@@H]1CCC12CCN(c1cnc3c(-c4ccccc4Cl)n[nH]c3n1)CC2

Response given:
< 10 µM
10 to 100 µM

* * *

target-under-test: UniProt:Q06124
experimental-protocol: SHP2 Allosteric Inhibition Assay (DiFMUP prompt fluorescence)
condition-description: 0.25 nM SHP2 activated with 0.5 μM peptide IRS1_pY1172(dPEG8)pY1222; substrate DiFMUP 100 μM
Experimental: SHP2 is allosterically activated through binding of bis-tyrosyl-phosphorylated peptides to its Src Homology 2 (SH2) domains. […] The catalytic activity of SHP2 was monitored using the surrogate substrate DiFMUP in a prompt fluorescence assay format. The inhibitor dose response curves were analyzed using normalized IC50 regression curve fitting with control based normalization.
pIC50: −log10 of the molar value.
assay-metric: pIC50

Hello, I would appreciate it if you could give pIC50 for each entry below.
1. CC1(N)CCN(c2cnc3c(-c4ccccc4Cl)n[nH]c3n2)CC1
2. N[C@@H]1[C@H]2CN(c3cnc4c(-c5cccc(Cl)c5)n[nH]c4n3)C[C@@H]12
3. NCC1(O)CCCN(c2cnc3c(-c4ccccc4Cl)n[nH]c3n2)CC1 (stereo not drawn)
4. CC1(CN)CCN(c2cnc3c(-c4cccc(Cl)c4)n[nH]c3n2)CC1
5. CC1(CN)CCN(c2cnc3c(-c4ccccc4Cl)n[nH]c3n2)CC1

Response given:
1. > 5.00
2. > 5.00
3. > 5.00
4. > 5.00
5. > 5.00

Hello, I would appreciate it if you could give pIC50 for each entry below.
1. O=C1NCC2(CCN(c3cnc4c(-c5ccccc5Cl)n[nH]c4n3)CC2)N1
2. NCC1CCCN(c2cnc3c(-c4ccccc4Cl)n[nH]c3n2)CC1 (stereo not drawn)
3. NC(=O)C1(N)CCN(c2cnc3c(-c4cccc(Cl)c4)n[nH]c3n2)CC1
4. N[C@@H]1CC12CCN(c1cnc3c(-c4ccccc4Cl)n[nH]c3n1)CC2
5. NC1(CO)CCN(c2cnc3c(-c4ccccc4Cl)n[nH]c3n2)CC1

Response given:
1. 4.00 to 5.00
2. > 5.00
3. > 5.00
4. 4.00 to 5.00
5. > 5.00

* * *

Would you mind telling me the reported IC50 of each entry?
target-under-test: SHP2 (Homo sapiens (Human), UniProt Q06124)
experimental-protocol: SHP2 Allosteric Inhibition Assay (DiFMUP prompt fluorescence)
condition-description: 0.25 nM SHP2 activated with 0.5 μM peptide IRS1_pY1172(dPEG8)pY1222; substrate DiFMUP 100 μM

Worked cases, IC50 given:
CNCC1(C)CCN(c2cnc3c(-c4ccccc4Cl)n[nH]c3n2)CC1	10 to 100 µM
CC1(N)CCN(c2cnc3c(-c4ccc(Cl)cc4)n[nH]c3n2)CC1	< 10 µM

Hello, I would appreciate it if you could give IC50 for each entry below.
1. NC1CCN(c2cnc3c(-c4ccccc4Cl)n[nH]c3n2)CC1
2. Clc1ccccc1-c1n[nH]c2nc(N3C4CCCC3CC4)cnc12
3. N[C@H]1CC12CCN(c1cnc3c(-c4ccccc4Cl)n[nH]c3n1)CC2

Response given:
1: < 10 µM; 2: 10 to 100 µM; 3: < 10 µM

Hello, I would appreciate it if you could give IC50 for each entry below.
1. CC(C)(N)C1CCN(c2cnc3c(-c4ccccc4Cl)n[nH]c3n2)CC1
2. CC1(CN)CCN(c2cnc3c(-c4cccc(Cl)c4F)n[nH]c3n2)CC1
3. CC1(CN)CCN(c2cnc3c(-c4ncccc4Cl)n[nH]c3n2)CC1
4. Clc1ccccc1-c1n[nH]c2nc(N3CCC4(CCCN4)CC3)cnc12
5. COc1ccccc1-c1n[nH]c2nc(N3CCC(C)(CN)CC3)cnc12
6. NCC1(F)CCN(c2cnc3c(-c4ccccc4Cl)n[nH]c3n2)CC1

Response given:
1. 10 to 100 µM
2. < 10 µM
3. 10 to 100 µM
4. < 10 µM
5. < 10 µM
6. < 10 µM

Hello, I would appreciate it if you could give IC50 for each entry below.
1. COC1(CN)CCN(c2cnc3c(-c4ccccc4Cl)n[nH]c3n2)CC1
2. NCC1(O)CCN(c2cnc3c(-c4ccccc4Cl)n[nH]c3n2)CC1
3. CC1(CN)CCN(c2cnc3c(-c4cccc(Cl)c4Br)n[nH]c3n2)CC1

Response given:
1. < 10 µM
2. < 10 µM
3. < 10 µM
